Origin of the recorded values: paper PMC2756588

# measurement-target: T1, Boi2, P39969
# T1 sequence (P39969 32-116, looked up): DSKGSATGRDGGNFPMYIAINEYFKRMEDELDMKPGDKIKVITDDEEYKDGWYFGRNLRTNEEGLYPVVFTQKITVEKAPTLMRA
# method-summary: SPOT array
# conditions: median of control spots 1161
experimental-readout: SPOT intensity

[[record]]
binder = "ALRRRLPVTRSKINW"
data_value = 1

[[record]]
binder = "MKRSRPSRSIPYTTP"
data_value = 2

[[record]]
binder = "ATNVPVAPPPPPASL"
data_value = 0

[[record]]
binder = "NVLRKILEIPLHSFS"
data_value = 0

[[record]]
binder = "SPLGAPPPPPHKDHL"
data_value = 0

[[record]]
binder = "KRNRLKILLPFLEQS"
data_value = 3

[[record]]
binder = "RPPRPPPKPLHLRTE"
data_value = 3

[[record]]
binder = "RRRRRPHRIERPLSN"
data_value = 0


[I] PPLPRAPPVPPATFE
[II] ITHRLRISIPGITGR
SPOT intensity comparison. Which is larger, I or II ? # reply format: chosen label
II
(II: 1, I: 0)

[1] RSLRKRPTSPSISGS
[2] FPPKRKPLLRPQRSD
Given 1 and given 2 , which shows the smaller recorded SPOT intensity? # reply format: chosen label
1
(1: 0, 2: 1)

[A] KRRAPPPVPKKPSSR
[B] LLLLFVPDSPYDPAI
SPOT intensity comparison. Which is larger, A or B ? # reply format: chosen label
A
(A: 1, B: 0)
